Data origin: ChEMBL document CHEMBL1131723

Entries and their measured MIC follow.
Tested on: Escherichia coli
Experiment: In vitro antibacterial activity against Escherichia coli UBMS 88-1 Tet B
Type: functional
Assay Readout: MIC (µg/mL)

• CN(C)c1cc(NC(=O)CNCc2ccccc2)c(O)c2c1CC1CC3[C@H](N(C)C)C(=O)C(C(N)=O)=C(O)[C@@]3(O)C(=O)C1=C2O (stereo partly drawn) = 2
• CN(C)c1cc(NC(=O)CN2CCC2)c(O)c2c1CC1CC3[C@H](N(C)C)C(=O)C(C(N)=O)=C(O)[C@@]3(O)C(=O)C1=C2O (stereo partly drawn) = 0.5
• CN(C)c1cc(NC(=O)CNC(C)(C)C)c(O)c2c1C[C@H]1C[C@H]3[C@H](N(C)C)C(O)=C(C(N)=O)C(=O)[C@@]3(O)C(O)=C1C2=O [TIGECYCLINE] = 0.5

----------
System: Staphylococcus aureus
Assay: In vitro antibacterial activity against Staphylococcus aureus Smith sensitive
Format: functional
Criterion: MIC strictly less than 0.2 µg/mL. Met: label 1. Not met: label 0.

- CCCCCCNCC(=O)Nc1cc(N(C)C)c2c(c1O)C(=O)C1=C(O)[C@]3(O)C(O)=C(C(N)=O)C(=O)[C@@H](N(C)C)C3CC1C2 (stereo not given in full): label 1
- CN(C)[C@@H]1C(O)=C(C(N)=O)C(=O)[C@@]2(O)C(O)=C3C(=O)c4c(O)cccc4[C@@](C)(O)[C@H]3C[C@@H]12: label 0
- CCCCNCC(=O)Nc1cc(N(C)C)c2c(c1O)C(=O)C1=C(O)[C@]3(O)C(O)=C(C(N)=O)C(=O)[C@@H](N(C)C)C3CC1C2 (stereo not given in full): label 1
- CN(C)c1cc(NC(=O)CNCc2ccccc2)c(O)c2c1CC1CC3[C@H](N(C)C)C(=O)C(C(N)=O)=C(O)[C@@]3(O)C(=O)C1=C2O (stereo not given in full): label 0
- CN(C)CC(=O)Nc1cc(N(C)C)c2c(c1O)C(=O)C1=C(O)[C@]3(O)C(O)=C(C(N)=O)C(=O)[C@@H](N(C)C)C3CC1C2 (stereo not given in full): label 1
- CNCC(=O)Nc1cc(N(C)C)c2c(c1O)C(=O)C1=C(O)[C@]3(O)C(O)=C(C(N)=O)C(=O)[C@@H](N(C)C)C3CC1C2 (stereo not given in full): label 0
- CN(C)c1cc(NC(=O)CNC2CC2)c(O)c2c1CC1CC3[C@H](N(C)C)C(=O)C(C(N)=O)=C(O)[C@@]3(O)C(=O)C1=C2O (stereo not given in full): label 0
- CCCNCC(=O)Nc1cc(N(C)C)c2c(c1O)C(=O)C1=C(O)[C@]3(O)C(O)=C(C(N)=O)C(=O)[C@@H](N(C)C)C3CC1C2 (stereo not given in full): label 0
- CN(C)c1cc(NC(=O)CN2CCCC2)c(O)c2c1CC1CC3[C@H](N(C)C)C(=O)C(C(N)=O)=C(O)[C@@]3(O)C(=O)C1=C2O (stereo not given in full): label 1
- CN(C)c1cc(NC(=O)Cn2ccnc2)c(O)c2c1CC1CC3[C@H](N(C)C)C(=O)C(C(N)=O)=C(O)[C@@]3(O)C(=O)C1=C2O (stereo not given in full): label 0

----------
Tested on: Staphylococcus aureus
Test: In vitro antibacterial activity against Staphylococcus aureus Smith sensitive
Format: functional
Assay Readout: MIC (µg/mL)

- CN(C)c1cc(NC(=O)CNC(C)(C)C)c(O)c2c1C[C@H]1C[C@H]3[C@H](N(C)C)C(O)=C(C(N)=O)C(=O)[C@@]3(O)C(O)=C1C2=O [TIGECYCLINE]: 0.25
- CCCCCCCCCCCNCC(=O)Nc1cc(N(C)C)c2c(c1O)C(=O)C1=C(O)[C@]3(O)C(O)=C(C(N)=O)C(=O)[C@@H](N(C)C)C3CC1C2 (stereo partly specified): 0.5
- CN(C)c1cc(NC(=O)CN2CCC2)c(O)c2c1CC1CC3[C@H](N(C)C)C(=O)C(C(N)=O)=C(O)[C@@]3(O)C(=O)C1=C2O (stereo partly specified): 0.25
- CN(C)c1cc(NC(=O)CN2CCSCC2)c(O)c2c1CC1CC3[C@H](N(C)C)C(=O)C(C(N)=O)=C(O)[C@@]3(O)C(=O)C1=C2O (stereo partly specified): 0.5
- CN(C)c1ccc(O)c2c1C[C@H]1C[C@H]3[C@H](N(C)C)C(O)=C(C(N)=O)C(=O)[C@@]3(O)C(O)=C1C2=O [MINOCYCLINE]: 2
- CN(C)c1cc(NC(=O)CN2CCCCC2)c(O)c2c1CC1CC3[C@H](N(C)C)C(=O)C(C(N)=O)=C(O)[C@@]3(O)C(=O)C1=C2O (stereo partly specified): 0.12

----------
Tested on: Staphylococcus aureus
Assay: In vitro antibacterial activity against Staphylococcus aureus UBMS 90-3 sensitive
Format: functional
Assay Readout: MIC (µg/mL)

• CN(C)c1cc(NC(=O)CNCc2ccccn2)c(O)c2c1CC1CC3[C@H](N(C)C)C(=O)C(C(N)=O)=C(O)[C@@]3(O)C(=O)C1=C2O (stereo partly drawn) = 4
• CCCCCCNCC(=O)Nc1cc(N(C)C)c2c(c1O)C(=O)C1=C(O)[C@]3(O)C(O)=C(C(N)=O)C(=O)[C@@H](N(C)C)C3CC1C2 (stereo partly drawn) = 0.06
• CN(C)c1cc(NC(=O)CN2CCCC2)c(O)c2c1CC1CC3[C@H](N(C)C)C(=O)C(C(N)=O)=C(O)[C@@]3(O)C(=O)C1=C2O (stereo partly drawn) = 0.12

----------
Entries and their measured MIC follow.
System: Staphylococcus aureus
Experiment: In vitro antibacterial activity against Staphylococcus aureus UBMS 90-1 Tet M
Assay type: functional
Assay Readout: MIC (µg/mL)

• CN(C)c1cc(NC(=O)CN2CCSCC2)c(O)c2c1CC1CC3[C@H](N(C)C)C(=O)C(C(N)=O)=C(O)[C@@]3(O)C(=O)C1=C2O (stereo partly specified) = 1
• CN(C)c1cc(NC(=O)CNCc2ccccc2)c(O)c2c1CC1CC3[C@H](N(C)C)C(=O)C(C(N)=O)=C(O)[C@@]3(O)C(=O)C1=C2O (stereo partly specified) = 0.5
• CN(C)c1cc(NC(=O)CNC2CC3CCC2C3)c(O)c2c1CC1CC3[C@H](N(C)C)C(=O)C(C(N)=O)=C(O)[C@@]3(O)C(=O)C1=C2O (stereo partly specified) = 0.5
• CN(C)c1cc(NC(=O)CN2CCCCC2)c(O)c2c1CC1CC3[C@H](N(C)C)C(=O)C(C(N)=O)=C(O)[C@@]3(O)C(=O)C1=C2O (stereo partly specified) = 0.25
• CN(C)c1cc(NC(=O)CNC2CCCC2)c(O)c2c1CC1CC3[C@H](N(C)C)C(=O)C(C(N)=O)=C(O)[C@@]3(O)C(=O)C1=C2O (stereo partly specified) = 0.25

----------
Tested on: Escherichia coli
Experiment: In vitro antibacterial activity against Escherichia coli UBMS 88-1 Tet B
Assay type: functional
Assay Readout: MIC

* CN(C)c1cc(NC(=O)CNCc2ccccn2)c(O)c2c1CC1CC3[C@H](N(C)C)C(=O)C(C(N)=O)=C(O)[C@@]3(O)C(=O)C1=C2O (some centres not stated) | 16 µg/mL
* CN(C)c1cc(NC(=O)CN2CCOCC2)c(O)c2c1CC1CC3[C@H](N(C)C)C(=O)C(C(N)=O)=C(O)[C@@]3(O)C(=O)C1=C2O (some centres not stated) | > 32 µg/mL
* CCCCCCNCC(=O)Nc1cc(N(C)C)c2c(c1O)C(=O)C1=C(O)[C@]3(O)C(O)=C(C(N)=O)C(=O)[C@@H](N(C)C)C3CC1C2 (some centres not stated) | 0.5 µg/mL
* CN(C)c1cc(NC(=O)CBr)c(O)c2c1CC1CC3[C@H](N(C)C)C(=O)C(C(N)=O)=C(O)[C@@]3(O)C(=O)C1=C2O (some centres not stated) | > 32 µg/mL
* CN(C)c1cc(NC(=O)CNC2CC3CCC2C3)c(O)c2c1CC1CC3[C@H](N(C)C)C(=O)C(C(N)=O)=C(O)[C@@]3(O)C(=O)C1=C2O (some centres not stated) | 0.5 µg/mL
* CN(C)c1cc(NC(=O)CNC2CCCC2)c(O)c2c1CC1CC3[C@H](N(C)C)C(=O)C(C(N)=O)=C(O)[C@@]3(O)C(=O)C1=C2O (some centres not stated) | 0.25 µg/mL
* CN(C)c1cc(NC(=O)CNC2CCCCCCC2)c(O)c2c1CC1CC3[C@H](N(C)C)C(=O)C(C(N)=O)=C(O)[C@@]3(O)C(=O)C1=C2O (some centres not stated) | 4 µg/mL

----------
System: Escherichia coli
Test: In vitro antibacterial activity against Escherichia coli UBMS 88-1 Tet B
Assay type: functional
Assay Readout: MIC (µg/mL)

• CCCNCC(=O)Nc1cc(N(C)C)c2c(c1O)C(=O)C1=C(O)[C@]3(O)C(O)=C(C(N)=O)C(=O)[C@@H](N(C)C)C3CC1C2 (stereo partly specified) = 0.5
• CCCCNCC(=O)Nc1cc(N(C)C)c2c(c1O)C(=O)C1=C(O)[C@]3(O)C(O)=C(C(N)=O)C(=O)[C@@H](N(C)C)C3CC1C2 (stereo partly specified) = 0.5
• CN(C)c1cc(NC(=O)CN2CCCC2)c(O)c2c1CC1CC3[C@H](N(C)C)C(=O)C(C(N)=O)=C(O)[C@@]3(O)C(=O)C1=C2O (stereo partly specified) = 0.25
• CCCCCCCCCCCNCC(=O)Nc1cc(N(C)C)c2c(c1O)C(=O)C1=C(O)[C@]3(O)C(O)=C(C(N)=O)C(=O)[C@@H](N(C)C)C3CC1C2 (stereo partly specified) = 32
